TGT: P2X purinoceptor 7 (Homo sapiens)
Sequence (whole entry): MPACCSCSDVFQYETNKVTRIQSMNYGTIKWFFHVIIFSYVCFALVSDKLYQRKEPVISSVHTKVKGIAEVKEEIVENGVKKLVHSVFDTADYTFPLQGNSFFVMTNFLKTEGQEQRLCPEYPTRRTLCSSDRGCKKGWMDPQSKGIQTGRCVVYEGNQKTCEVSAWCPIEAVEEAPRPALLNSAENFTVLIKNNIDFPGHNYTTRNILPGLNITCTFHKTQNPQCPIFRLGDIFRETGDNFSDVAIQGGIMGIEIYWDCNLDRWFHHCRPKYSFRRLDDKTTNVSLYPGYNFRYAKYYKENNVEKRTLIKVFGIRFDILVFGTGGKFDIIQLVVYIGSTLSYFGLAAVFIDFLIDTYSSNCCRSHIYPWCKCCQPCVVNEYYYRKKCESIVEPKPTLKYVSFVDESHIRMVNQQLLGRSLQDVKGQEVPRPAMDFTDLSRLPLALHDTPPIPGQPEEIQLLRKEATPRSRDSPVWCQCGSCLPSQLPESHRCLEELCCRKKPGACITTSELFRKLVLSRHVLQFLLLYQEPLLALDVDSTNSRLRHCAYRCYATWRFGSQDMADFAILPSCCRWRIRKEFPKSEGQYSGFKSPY
TEST_DETAILS: The compound was evaluated for antagonist activity against recombinant human P2X purinoceptor 7 (P2X7)
Assay type: functional
pIC50: −log10 of the molar value.
PROPERTY_NAME: pIC50

* CNc1ncnc2c1ncn2[C@H]1C[C@H](OP(=O)(O)O)[C@@H](COP(=O)(O)O)O1 | < 4.52

====

TGT: P2X purinoceptor 2 (Rattus norvegicus)
TEST_DETAILS: The compound was evaluated for antagonist activity against recombinant rat receptor P2X purinoceptor 2 (P2X2) at 10 uM, expressed in Xenopus oocytes
Type: functional, cell-based, Oocyte
PROPERTY_NAME: EC50 (nM)

• Cc1nc(/N=N/c2cc(S(=O)(=O)O)ccc2Cl)c(COP(=O)(O)O)c(C=O)c1O = 1.1

====

TGT: P2X purinoceptor 7 (Rattus norvegicus, UniProt Q64663)
Sequence (Q64663 whole entry): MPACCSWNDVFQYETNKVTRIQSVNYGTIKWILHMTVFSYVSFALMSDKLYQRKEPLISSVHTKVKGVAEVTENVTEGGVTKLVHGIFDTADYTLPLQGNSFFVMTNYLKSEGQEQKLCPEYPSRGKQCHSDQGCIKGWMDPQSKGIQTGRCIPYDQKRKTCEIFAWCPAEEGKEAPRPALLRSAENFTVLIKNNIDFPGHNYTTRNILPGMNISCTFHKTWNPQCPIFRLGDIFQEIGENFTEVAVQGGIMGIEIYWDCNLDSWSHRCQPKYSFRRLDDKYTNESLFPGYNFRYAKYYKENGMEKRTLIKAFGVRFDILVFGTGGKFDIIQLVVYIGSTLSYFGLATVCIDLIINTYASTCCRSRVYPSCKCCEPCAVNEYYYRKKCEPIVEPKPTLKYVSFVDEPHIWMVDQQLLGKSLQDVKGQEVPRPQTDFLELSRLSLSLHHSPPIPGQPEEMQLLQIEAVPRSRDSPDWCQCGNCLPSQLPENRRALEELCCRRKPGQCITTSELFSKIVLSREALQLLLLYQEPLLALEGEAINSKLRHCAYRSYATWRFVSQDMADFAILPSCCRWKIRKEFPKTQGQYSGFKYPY
TEST_DETAILS: The compound was evaluated for antagonist activity against P2X purinoceptor 7 (P2X7) in rat parotid acinar cells
pIC50: −log10 of the molar value.
PROPERTY_NAME: pIC50

* O=S(=O)(O)c1cc(N=C=S)ccc1/C=C/c1ccc(N=C=S)cc1S(=O)(=O)O | 4.46

====

TGT: P2Y purinoceptor 4 (Rattus norvegicus)
Sequence (O35811 whole entry): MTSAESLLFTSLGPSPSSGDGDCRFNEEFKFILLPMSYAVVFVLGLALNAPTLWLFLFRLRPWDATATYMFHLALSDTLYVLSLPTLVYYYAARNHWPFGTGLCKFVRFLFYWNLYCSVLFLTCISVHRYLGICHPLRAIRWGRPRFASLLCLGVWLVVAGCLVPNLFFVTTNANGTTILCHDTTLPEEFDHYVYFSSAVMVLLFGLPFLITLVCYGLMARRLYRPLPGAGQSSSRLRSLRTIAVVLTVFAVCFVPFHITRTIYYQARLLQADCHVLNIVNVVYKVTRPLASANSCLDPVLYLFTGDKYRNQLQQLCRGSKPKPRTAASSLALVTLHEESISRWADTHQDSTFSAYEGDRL
TEST_DETAILS: The compound was evaluated for antagonist activity against phospholipase C coupled recombinant rat P2Y purinoceptor 4 (P2Y4)
Type: functional
pEC50: −log10 of the molar value.
PROPERTY_NAME: pEC50

- Nc1ncnc2c1ncn2[C@@H]1O[C@H](COP(=O)(O)OP(=O)(O)OP(=O)(O)OP(=O)(O)OC[C@H]2O[C@@H](n3cnc4c(N)ncnc43)[C@H](O)[C@@H]2O)[C@@H](O)[C@H]1O [DIADENOSINE TETRAPHOSPHATE]: 5.52
- O=c1ccn([C@@H]2O[C@H](COP(=O)(O)OP(=O)(O)OP(=O)(O)O)[C@@H](O)[C@H]2O)c(=O)[nH]1 [URIDINE TRIPHOSPHATE]: 5.59

====

TGT: P2X purinoceptor 4 (Rattus norvegicus)
Sequence (P51577 whole entry): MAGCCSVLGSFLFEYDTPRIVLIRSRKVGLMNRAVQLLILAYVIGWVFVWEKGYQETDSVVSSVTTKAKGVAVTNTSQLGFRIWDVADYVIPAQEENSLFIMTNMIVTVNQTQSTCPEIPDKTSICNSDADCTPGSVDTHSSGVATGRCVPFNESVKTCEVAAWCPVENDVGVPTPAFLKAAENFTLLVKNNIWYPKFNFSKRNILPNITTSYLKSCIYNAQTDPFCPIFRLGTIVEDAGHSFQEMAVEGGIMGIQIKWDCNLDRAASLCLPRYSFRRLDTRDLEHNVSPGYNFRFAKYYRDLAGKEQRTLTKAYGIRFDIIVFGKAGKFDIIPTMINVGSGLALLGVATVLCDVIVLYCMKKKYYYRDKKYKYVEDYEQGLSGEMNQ
TEST_DETAILS: Antagonist activity against recombinant rat P2X purinoceptor 4 (P2X4) at 30 uM, expressed in Xenopus oocytes
Type: functional, cell-based, Oocyte
Here, each record is paired with measured log10 of EC50 data.
PROPERTY_NAME: log10 of EC50 (log10 of the value in µM)

* Nc1ncnc2c1ncn2[C@@H]1O[C@H](COP(=O)(O)CP(=O)(O)OP(=O)(O)O)[C@@H](O)[C@H]1O | 1.52
* Nc1ncnc2c1ncn2[C@@H]1O[C@H](COP(=O)(O)OP(=O)(O)OP(=O)(O)O)[C@@H](O)[C@H]1O [ADENOSINE TRIPHOSPHATE] | 0.00
* Nc1ncnc2c1ncn2[C@@H]1O[C@H](COP(=O)(O)OP(=O)(O)O)[C@@H](O)[C@H]1O [ADENOSINE DIPHOSPHATE] | 1.45
* Nc1ncnc2c1ncn2[C@@H]1O[C@H](CO[P@](=O)(O)O[P@](=O)(O)O[P@@](=O)(O)S)[C@@H](O)[C@H]1O | 0.36
* CSc1nc(N)c2ncn([C@@H]3O[C@H](COP(=O)(O)OP(=O)(O)OP(=O)(O)O)[C@@H](O)[C@H]3O)c2n1 | 0.87

====

TGT: P2X purinoceptor 4 (Rattus norvegicus)
TEST_DETAILS: Antagonist activity against recombinant rat P2X purinoceptor 4 (P2X4) at 3 uM, expressed in Xenopus oocytes
Type: functional, cell-based, Oocyte
pEC50: −log10 of the molar value.
Known pEC50 of a selection of compounds
PROPERTY_NAME: pEC50

* CCCCCCSc1nc(N)c2ncn([C@@H]3O[C@H](COP(=O)(O)O)[C@@H](O)[C@H]3O)c2n1 | 4.70
* Nc1ccc(CCSc2nc(N)c3ncn([C@@H]4O[C@H](COP(=O)(O)OP(=O)(O)OP(=O)(O)O)[C@@H](O)[C@H]4O)c3n2)cc1 | 4.82

====

TGT: P2Y purinoceptor 12 (Rattus norvegicus, UniProt Q9EPX4)
Sequence (Q9EPX4 whole entry): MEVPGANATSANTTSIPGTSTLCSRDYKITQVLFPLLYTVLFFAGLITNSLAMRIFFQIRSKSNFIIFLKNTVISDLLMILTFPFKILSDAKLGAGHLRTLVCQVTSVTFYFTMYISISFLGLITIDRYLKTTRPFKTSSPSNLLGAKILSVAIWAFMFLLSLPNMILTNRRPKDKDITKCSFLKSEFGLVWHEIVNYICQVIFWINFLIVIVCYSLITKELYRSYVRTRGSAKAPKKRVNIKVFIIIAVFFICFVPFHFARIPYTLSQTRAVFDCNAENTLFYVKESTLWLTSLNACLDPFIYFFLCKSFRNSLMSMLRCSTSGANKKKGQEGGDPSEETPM
TEST_DETAILS: Antagonist activity against phospholipase C coupled rat P2Y purinoceptor 12 (P2Y12)
Format: functional
Reported EC50 values are given for each entry in this list.
PROPERTY_NAME: EC50 (nM)

• Nc1ncnc2c1ncn2[C@@H]1O[C@H](COP(=O)(O)OP(=O)(O)S)[C@@H](O)[C@H]1O (some centres undefined) = 82
• Nc1ncnc2c1ncn2[C@@H]1O[C@H](COP(=O)(O)OP(=O)(O)O)[C@@H](O)[C@H]1O [ADENOSINE DIPHOSPHATE] = 69
• Nc1c(S(=O)(=O)O)cc(Nc2ccc(Nc3nc(Cl)nc(Nc4cccc(S(=O)(=O)O)c4)n3)c(S(=O)(=O)O)c2)c2c1C(=O)c1ccccc1C2=O = 25

====

TGT: P2X purinoceptor 2 (Rattus norvegicus, UniProt P49653)
Sequence (P49653 whole entry): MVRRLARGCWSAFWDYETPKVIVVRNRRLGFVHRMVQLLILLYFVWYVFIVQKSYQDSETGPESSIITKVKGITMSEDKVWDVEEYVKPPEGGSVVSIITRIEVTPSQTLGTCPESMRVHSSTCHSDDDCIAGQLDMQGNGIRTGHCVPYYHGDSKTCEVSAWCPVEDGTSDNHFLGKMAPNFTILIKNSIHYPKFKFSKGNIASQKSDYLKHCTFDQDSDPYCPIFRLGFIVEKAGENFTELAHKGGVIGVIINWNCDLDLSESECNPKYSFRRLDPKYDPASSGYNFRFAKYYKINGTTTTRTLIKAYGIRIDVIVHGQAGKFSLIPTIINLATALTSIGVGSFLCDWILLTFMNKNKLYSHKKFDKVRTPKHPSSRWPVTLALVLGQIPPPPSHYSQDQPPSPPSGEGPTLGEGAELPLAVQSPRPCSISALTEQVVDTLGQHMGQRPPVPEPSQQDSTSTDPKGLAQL
TEST_DETAILS: Antagonist activity against recombinant rat receptor P2X purinoceptor 2 (P2X2) at 10 uM, expressed in Xenopus oocytes
Format: functional, cell-based, Oocyte
pEC50: −log10 of the molar value.
Below is a list of entries, each paired with its recorded pEC50 value.
PROPERTY_NAME: pEC50

- Nc1c(S(=O)(=O)O)cc(Nc2ccc(Nc3nc(Cl)nc(Nc4cccc(S(=O)(=O)O)c4)n3)c(S(=O)(=O)O)c2)c2c1C(=O)c1ccccc1C2=O [RB 2]: 6.44
- Nc1ncnc2c1ncn2[C@@H]1O[C@H](COP(=O)(O)OP(=O)(O)OP(=O)(O)O)[C@@H](O)[C@H]1O [ADENOSINE TRIPHOSPHATE]: 5.85
- Nc1ncnc2c1ncn2[C@@H]1O[C@H](COP(=O)(O)OP(=O)(O)S)[C@@H](O)[C@H]1O (some centres undefined): 4.00

====

# Lookup of reported EC50 keyed by entry
TGT: P2Y purinoceptor 6 (Homo sapiens, UniProt Q15077)
Sequence (Q15077 whole entry): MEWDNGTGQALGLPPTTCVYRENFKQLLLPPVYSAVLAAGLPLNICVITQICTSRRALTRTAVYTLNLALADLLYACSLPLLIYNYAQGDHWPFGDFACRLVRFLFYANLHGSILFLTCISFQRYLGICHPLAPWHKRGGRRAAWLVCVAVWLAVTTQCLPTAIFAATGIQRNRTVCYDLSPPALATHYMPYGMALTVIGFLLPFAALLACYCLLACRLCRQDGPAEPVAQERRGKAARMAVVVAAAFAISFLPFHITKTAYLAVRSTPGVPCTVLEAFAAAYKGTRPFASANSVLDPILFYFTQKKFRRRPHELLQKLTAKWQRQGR
TEST_DETAILS: The compound was evaluated for agonist activity against phospholipase C coupled recombinant human P2Y purinoceptor 6 (P2Y6)
PROPERTY_NAME: EC50

* CNc1nc(Cl)nc2c1ncn2[C@H]1C[C@@H](OP(=O)(O)O)[C@]2(COP(=O)(O)O)C[C@H]12 | > 100 µM
* Nc1ncnc2c1ncn2[C@@H]1O[C@H](COP(=O)(O)OP(=O)(O)OP(=O)(O)O)[C@@H](O)[C@H]1O [ADENOSINE TRIPHOSPHATE] | > 100 µM
* CNc1ncnc2c1ncn2[C@H]1C[C@H](OP(=O)(O)O)[C@@H](COP(=O)(O)O)O1 | > 100 µM

====

TGT: P2X purinoceptor 1 (Homo sapiens)
Sequence (P51575 whole entry): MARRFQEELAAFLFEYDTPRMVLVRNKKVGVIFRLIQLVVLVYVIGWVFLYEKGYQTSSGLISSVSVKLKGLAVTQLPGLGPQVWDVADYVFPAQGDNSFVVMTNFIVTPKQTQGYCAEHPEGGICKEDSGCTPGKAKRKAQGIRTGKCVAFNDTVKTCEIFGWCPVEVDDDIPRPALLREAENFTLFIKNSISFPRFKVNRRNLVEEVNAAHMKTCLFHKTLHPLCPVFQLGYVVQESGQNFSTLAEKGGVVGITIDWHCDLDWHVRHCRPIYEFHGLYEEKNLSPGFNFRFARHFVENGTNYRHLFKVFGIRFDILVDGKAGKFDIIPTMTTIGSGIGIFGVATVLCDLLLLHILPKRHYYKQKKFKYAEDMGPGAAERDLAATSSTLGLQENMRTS
TEST_DETAILS: Antagonist activity against recombinant human P2X purinoceptor 1 (P2X1 )
Listed here: items and their measured EC50.
PROPERTY_NAME: EC50 (µM)

- Nc1ncnc2c1ncn2[C@@H]1O[C@H](COP(=O)(O)CP(=O)(O)OP(=O)(O)O)[C@@H](O)[C@H]1O: 0.2
- Nc1ncnc2c1ncn2[C@@H]1O[C@H](COP(=O)(O)OP(=O)(O)S)[C@@H](O)[C@H]1O (stereo not given in full): 2.5
- Nc1ncnc2c1ncn2[C@@H]1O[C@H](COP(=O)(O)OP(=O)(O)CP(=O)(O)O)[C@@H](O)[C@H]1O: 2
- CSc1nc(N)c2ncn([C@@H]3O[C@H](COP(=O)(O)OP(=O)(O)OP(=O)(O)O)[C@@H](O)[C@H]3O)c2n1: 0.054
- Nc1ncnc2c1ncn2[C@@H]1O[C@H](CO[P@](=O)(O)O[P@](=O)(O)O[P@@](=O)(O)S)[C@@H](O)[C@H]1O: 2.3
